test system: Vero E6 infected with SARS-CoV-2; test: inhibition of SARS-CoV-2 cytopathic effect; higher = more antiviral protection, active = above 15; settings: 100 nM; 48 h
If the reported inhibition of SARS-CoV-2 cytopathic effect equals or exceeds 1%, assign 1.0. If not, assign 0.0.

compound=C=CCc1ccc(O)c(-c2cc(CC=C)ccc2O)c1 category=1.0
compound=CCCOc1ccc(C(=O)OCCN(CC)CC)cc1N category=1.0
compound=O=[N+]([O-])c1cccc2c(Br)n[nH]c12 category=0.0

We next turn to a different compound, shown below.
Item Cc1cc(CC(C)CC(C)(C)C)n(O)c(=O)c1 (stereo not given) with inhibition of SARS-CoV-2 cytopathic effect of 1% or above? 1.0
